Values compiled from ChEMBL document CHEMBL1926627.

# MEASUREMENT DESCRIPTION: Oral bioavailability in rat at 1 mg/kg
# Format: ADME, organism-based
# EXPERIMENTAL PARAMETERS: in vivo
VALUE TYPE: bioavailability (%)

As a guide, the following entries are already answered.
What measured bioavailability goes with COCc1cccc(C[C@H](O)/C=C/[C@H]2CCC(=S)N2CCCCCCC(=O)O)c1 ?
12.3

Follow-up entry: O=C(O)CCCSCCN1C(=O)SC[C@@H]1/C=C/[C@@H](O)Cc1cccc(C(F)(F)F)c1
5.5

Follow-up entry: Cc1cccc(C[C@H](O)/C=C/[C@H]2CCC(=S)N2CCSCCCC(=O)O)c1
9.8

a. O=C(O)CCCSCCN1C(=O)SC[C@@H]1/C=C/[C@@H](O)Cc1ccccc1
b. CCCc1cccc(C[C@H](O)/C=C/[C@H]2CSC(=O)N2CCSCCCC(=O)O)c1
Hi, I'm comparing a with b and wondering which one has the bigger number for bioavailability. Any idea? Give the chosen item's label as your response.
b

I. O=C(O)CCCSCCN1C(=O)OC[C@@H]1/C=C/[C@@H](O)Cc1cccc(C(F)(F)F)c1
II. COCc1cccc(C[C@H](O)/C=C/[C@H]2CSC(=O)N2CCSCCCC(=O)O)c1
Between item I and item II , which reported bioavailability is smaller? Give the chosen item's label as your response.
II
(II: 2%, I: 6.7%)

a. CCc1cccc(C[C@H](O)/C=C/[C@H]2CSC(=O)N2CCSCCCC(=O)O)c1
b. Cc1cccc(C[C@H](O)/C=C/[C@H]2COC(=O)N2CCSCCCC(=O)O)c1
Between item a and item b , which reported bioavailability is smaller? Give the chosen item's label as your response.
b
